Sourced from patent US20180222961A1

Biological target: T1, HLA-A*03:01 (human)
T1 construct: also called peptide-receptive MHC molecules
Assay: UV-exchange b2m ELISA; exchange-yield grade
observation type: peptide exchange yield

Consider the binder shown here: RISEYLLEK What is its recorded peptide exchange yield? 20 to 50%

Consider next the binder RLFSWLVNR in the same way. 50 to 75%

Consider next the binder GTSPPSVEK in the same way. 20 to 50%

Consider next the binder VLYGPAGLGK in the same way. 50 to 75%

Consider next the binder TTALKTTSR in the same way. 10 to 20%

Consider next the binder RVNAIPFTY in the same way. 50 to 75%

Consider next the binder KTFPASTVF in the same way. 10 to 20%

Consider next the binder GTNTVILEY in the same way. 50 to 75%
